# experiment description: NCI Yeast Anticancer Drug Screen. Data for the mlh1 rad18 strain (AID 175)
# measurement context: S. cerevisiae mlh1 rad18 strain growth inhibition; at 50.0 µM; stronger effect = higher value
This is part of a sample that, as a whole, favours compounds with a hit. Of some 79,000 tested, about 15% had one in any assay.
Is growth inhibition at least 10%? Then true (1). If not, false (0).

> print(dat)
                                   compound  class.label
1  C/C(=N/NC(=S)Nc1cccc(Cl)c1)c1cccc(/C(C)=N\NC(=S)Nc2cccc(Cl)c2)n1     true (1)
2                                Brc1ncccn1     true (1)
3               N#C/C(=C\c1ccc(F)cc1)C(=O)O     true (1)
4              CC(=O)c1c(C)cc(C(C)(C)C)cc1C     true (1)

Inquiry: Please check the record S=C1Cc2c(-c3ccc(Br)cc3)cc(-c3ccccc3)nc2-c2ccccc2N1 and state if its growth inhibition is at or above 10%.
Reply text: true (1)
